Known scaled lipid accumulation score of a selection of molecules
- Tested on: primary human hepatic stellate cells (donor 1)
- Method Description: scaled lipid accumulation score (0 = DMSO-like, 1 = nortriptyline-like); higher = stronger HSC inactivation (lipid re-accumulation), active = hit call of the paper
- Reported Conditions: library stock concentration: 2 mM; 48 h
The campaign covered roughly 5,800 compounds. About 620 (11%) showed activity. Many of the other results were omitted from the sample, so actives are more common in it than they were.

                                   molecule                    readout_label      assay_result
0  Cc1ccc(C(=O)Nc2cccc(C(F)(F)F)c2)cc1Nc1cncc(C(N)=O)c1  scaled lipid accumulation score    ≤ 0 (inactive)
1  Cc1[nH]c(/C=C2\C(=O)Nc3ccccc32)c(C)c1CCC(=O)O [SU-6668 (TSU-68, Orantinib) (2 mM)]  scaled lipid accumulation score  0.047 (inactive)
2  C[C@@H](Oc1cc(-n2cnc3ccc(CN4CCN(C)CC4)cc32)sc1C(N)=O)c1ccccc1C(F)(F)F  scaled lipid accumulation score    0.915 (active)

(Q) Which measured scaled lipid accumulation score value corresponds to Nc1ccccc1NC(=O)c1ccc(CNC(=O)OCc2cccnc2)cc1 ?
(A) ≤ 0 (inactive)

(Q) Param item: C=CC(=O)Nc1cccc(Nc2nc(NC3CCC(N(C)C)CC3)nc3c2ncn3C(C)C)c1 (centres undefined)
(A) ≤ 0 (inactive)

(Q) Also NC(=O)c1cnc(N[C@@H]2CCCC[C@@H]2N)nc1Nc1cccc(-n2nccn2)c1 ?
(A) 0.218 (inactive)

(Q) Also need Cc1ccc(C(=O)Nc2cccc(C(F)(F)F)c2)cc1Nc1nc(-c2cccnc2)nc2c1cnn2C , thanks.
(A) ≤ -0.016 (inactive)

(Q) Please give the result for CCN(CC)CCNC(=O)c1c(C)[nH]c(/C=C2\C(=O)Nc3ccc(F)cc32)c1C.O=C(O)C[C@H](O)C(=O)O too.
(A) 1.66 (active)

(Q) Please answer likewise for O=C(NC(NC(=S)Nc1ccc(F)c([N+](=O)[O-])c1)C(Cl)(Cl)Cl)C(c1ccccc1)c1ccccc1 (centres undefined)
(A) 0.01 (inactive)
